- Test system: NS5A chimeric genotype 2a JFH-1 replicon with genotype 2b MD2b-1 strain NS5A gene (M31 present)
- procedure summary: Replicon assay, genotype 2b NS5A chimera
- Format: cell-based, HCV
- test settings: Hepatitis C virus, read-out: 2b (s) (nM), genotype 2b MD2b-1 NS5A chimeric replicon (M31), stably replicating replicon cells (s)
property name: EC50 (nM)

COC(=O)N[C@H](C(=O)N1[C@@H](C)CC[C@H]1c1nc2ccc3cc4c(cc3c2[nH]1)OCc1cc(-c2cnc([C@@H]3CC[C@H](C)N3C(=O)[C@@H](NC(=O)OC)[C@@H](C)OC(F)F)[nH]2)ccc1-4)[C@@H](C)OC
0.247

====

- Test system: NS5A chimeric genotype 1b Con1 replicon with genotype 3a S52 strain NS5A gene
- procedure summary: Replicon assay, genotype 3a NS5A chimera
- Assay type: cell-based, HCV
- test settings: Hepatitis C virus, read-out: 3a (s), (s); activity range
property name: EC50

CC[C@H]1CC[C@@H](c2nc3ccc4cc5c(cc4c3[nH]2)OCc2cc(-c3cnc([C@@H]4CC[C@H](C)N4C(=O)[C@@H](NC(=O)OC)C(C)C)[nH]3)ccc2-5)N1C(=O)[C@@H](NC(=O)OC)[C@@H](C)OC
0.1 to 0.999 nM
CC[C@H](C)[C@H](NC(=O)OC)C(=O)N1C[C@@H](COC)C[C@H]1c1ncc(-c2ccc3c(c2)COc2cc4c(ccc5nc([C@@H]6CC[C@H](C)N6C(=O)[C@@H](NC(=O)OC)[C@@H](C)OC)[nH]c54)cc2-3)[nH]1
0.1 to 0.999 nM
COC(=O)N[C@H](C(=O)N1[C@@H](C)CC[C@H]1c1nc(Cl)c(-c2ccc3c(c2)COc2cc4c(ccc5nc([C@@H]6CC[C@H](C)N6C(=O)[C@@H](NC(=O)OC)[C@@H](C)OC)[nH]c54)cc2-3)[nH]1)[C@@H](C)OC
< 0.1 nM
COC[C@H]1C[C@@H](c2ncc(-c3ccc4c(c3)COc3cc5c(ccc6nc([C@@H]7C[C@H](C)CN7C(=O)[C@@H](NC(=O)OC)[C@@H](C)OC)[nH]c65)cc3-4)[nH]2)N(C(=O)[C@@H](NC(=O)OC)[C@@H](C)OC)C1
1 to 44 nM
CC[C@H]1CC[C@@H](c2nc3ccc4cc5c(cc4c3[nH]2)OCc2cc(-c3cnc([C@@H]4CC[C@H](CC)N4C(=O)[C@@H](NC(=O)OC)C4CCOCC4)[nH]3)ccc2-5)N1C(=O)[C@@H](NC(=O)OC)C(C)C
0.1 to 0.999 nM

====

- Tested on: NS5A chimeric genotype 1b Con1 replicon with genotype 3a S52 strain NS5A gene
- procedure summary: Replicon assay, genotype 3a NS5A chimera
- Type: cell-based, HCV
- test settings: Hepatitis C virus, read-out: 3a (s), (s); activity range
Measured EC50, listed per entry.
property name: EC50

CC[C@H](C)C(NC(=O)OC)C(=O)N1[C@@H](C)CC[C@H]1c1nc2ccc3cc4c(cc3c2[nH]1)OCc1cc(-c2cnc([C@@H]3CC[C@H](C)N3C(=O)[C@@H](NC(=O)OC)[C@@H](C)OC)[nH]2)ccc1-4 (stereo partly drawn)
< 100 pM
CC[C@H](C)[C@H](NC(=O)OC)C(=O)N1[C@@H](C)CC[C@H]1c1ncc(-c2ccc3c(c2)COc2cc4c(ccc5nc([C@@H]6CC[C@H](C)N6C(=O)[C@@H](NC(=O)OC)C6CCOCC6)[nH]c54)cc2-3)[nH]1
< 100 pM
COC(=O)N[C@H](C(=O)N1[C@@H](C)CC[C@H]1c1ncc(-c2ccc3c(c2)COc2cc4c(ccc5nc([C@@H]6CC[C@H](C)N6C(=O)[C@@H](NC(=O)OC)[C@@H](C)O)[nH]c54)cc2-3)[nH]1)C(C)C
< 100 pM
CC[C@H]1CC[C@@H](c2ncc(-c3ccc4c(c3)COc3cc5c(ccc6nc([C@@H]7CC[C@H](C)N7C(=O)[C@@H](NC(=O)OC)C7CCOCC7)[nH]c65)cc3-4)[nH]2)N1C(=O)[C@@H](NC(=O)OC)[C@@H](C)CC
100 to 999 pM
COC(=O)NC(C(=O)N1[C@@H](C)CC[C@H]1c1nc2ccc3cc4c(cc3c2[nH]1)OCc1cc(-c2cnc([C@@H]3CC[C@H](C)N3C(=O)[C@@H](NC(=O)OC)[C@@H](C)OC)[nH]2)ccc1-4)C1CCOCC1 (stereo partly drawn)
< 100 pM
CC[C@H]1CC[C@@H](c2nc3ccc4cc5c(cc4c3[nH]2)OCc2cc(-c3cnc([C@@H]4CC[C@H](C)N4C(=O)[C@@H](NC(=O)OC)C(C)C)[nH]3)ccc2-5)N1C(=O)[C@H](NC(=O)OC)c1ccccc1
< 100 pM
CC[C@H]1CC[C@@H](c2ncc(-c3ccc4c(c3)COc3cc5c(ccc6nc([C@@H]7CC[C@H](C)N7C(=O)[C@@H](NC(=O)OC)C7CCOCC7)[nH]c65)cc3-4)[nH]2)N1C(=O)[C@@H](NC(=O)OC)C(C)C
< 100 pM
COC(=O)N[C@H](C(=O)N1C[C@@H](C)C[C@H]1c1ncc(-c2ccc3c(c2)COc2cc4c(ccc5nc([C@@H]6CC[C@H](C)N6C(=O)[C@@H](NC(=O)OC)C6CCOCC6)[nH]c54)cc2-3)[nH]1)C(C)C
< 100 pM
CC[C@H]1CC[C@@H](c2ncc(-c3ccc4c(c3)COc3cc5c(ccc6nc([C@@H]7CC[C@H](C)N7C(=O)[C@@H](NC(=O)OC)[C@@H](C)OC)[nH]c65)cc3-4)[nH]2)N1C(=O)[C@H](C)NC(=O)OC
100 to 999 pM

====

- Test system: NS5A chimeric genotype 1b Con1 replicon with genotype 3a S52 strain NS5A gene
- procedure summary: Replicon assay, genotype 3a NS5A chimera
- Assay type: cell-based, HCV
- test settings: Hepatitis C virus, read-out: 3a (s) (nM), genotype 3a NS5A chimeric replicon, stable replicon cells (s)
Measured EC50, listed per entry.
property name: EC50 (nM)

CCC[C@H](NC(=O)OC)C(=O)N1[C@@H](C)CC[C@H]1c1ncc(-c2ccc3c(c2)COc2cc4c(ccc5nc([C@@H]6CC[C@H](C)N6C(=O)[C@H](CCC)NC(=O)OC)[nH]c54)cc2-3)[nH]1
0.132
COC(=O)N[C@H](C(=O)N1[C@@H](C)CC[C@H]1c1ncc(-c2ccc3c(c2)COc2cc4c(ccc5nc([C@@H]6C[C@@H]7CCC[C@@H]7N6C(=O)[C@@H](NC(=O)OC)C6CCOCC6)[nH]c54)cc2-3)[nH]1)C(C)C
0.052

====

- Test system: NS5A chimeric genotype 1b Con1 replicon with genotype 3a S52 strain NS5A gene
- procedure summary: Replicon assay, genotype 3a NS5A chimera
- Format: cell-based, HCV
- test settings: Hepatitis C virus, read-out: 3a (s), (s); activity range
Measured EC50, listed per entry.
property name: EC50

COC(=O)N[C@H](C(=O)N1[C@@H](C)CC[C@H]1c1ncc(-c2ccc3c(c2)COc2cc4c(ccc5nc([C@@H]6CC[C@H](C)N6C(=O)[C@@H](NC(=O)OC(C)(C)C)C(C)(C)O)[nH]c54)cc2-3)[nH]1)C(C)C [HV]
1 to 44 nM
COC[C@H]1C[C@@H](c2nc(Cl)c(-c3ccc4c(c3)COc3cc5c(ccc6nc([C@@H]7CC[C@H](C)N7C(=O)[C@@H](NC(=O)OC)C(C)C)[nH]c65)cc3-4)[nH]2)N(C(=O)[C@H](NC(=O)OC)c2ccccc2)C1 [FY]
< 0.1 nM
COC[C@H](NC(=O)OC)C(=O)N1[C@@H](C)CC[C@H]1c1nc2ccc3cc4c(cc3c2[nH]1)OCc1cc(-c2cnc([C@@H]3CC[C@H](C)N3C(=O)[C@@H](NC(=O)OC)C(C)C)[nH]2)ccc1-4 [FE]
< 0.1 nM
CC[C@H](C)[C@H](NC(=O)OC)C(=O)N1[C@H](c2ncc(-c3ccc4c(c3)COc3cc5c(ccc6nc([C@@H]7CC[C@H](C)N7C(=O)[C@@H](NC(=O)OC)C7CCOCC7)[nH]c65)cc3-4)[nH]2)C[C@@H]2CCC[C@@H]21 [IL]
< 0.1 nM
COC(=O)N[C@H](C(=O)N1[C@@H](C)CC[C@H]1c1ncc(-c2ccc3c(c2)COc2cc4c(ccc5nc([C@@H]6CC[C@H](C)N6C(=O)[C@@H](NC(=O)OC)[C@@H](C)OC)[nH]c54)cc2-3)[nH]1)C(C)C [FA]
< 0.1 nM
CC[C@H]1CC[C@@H](c2ncc(-c3ccc4c(c3)COc3cc5c(ccc6nc([C@@H]7CC[C@H](C)N7C(=O)[C@@H](NC(=O)OC)C(C)C)[nH]c65)cc3-4)[nH]2)N1C(=O)[C@@H](NC(=O)OC)C1CCOCC1 [HQ]
< 0.1 nM
COC(=O)N[C@H](C(=O)N1[C@@H](C)CC[C@H]1c1ncc(-c2ccc3c(c2)COc2cc4c(ccc5nc([C@@H]6C[C@H](COC(F)F)CN6C(=O)[C@@H](NC(=O)OC)[C@@H](C)OC)[nH]c54)cc2-3)[nH]1)C(C)C [FO]
< 0.1 nM
COC(=O)N[C@H](C(=O)N1C(c2ncc(-c3ccc4c(c3)COc3cc5c(ccc6nc(C7C[C@H](C)CN7C(=O)[C@@H](NC(=O)OC)C(C)(C)C)[nH]c65)cc3-4)[nH]2)CC[C@@H]1C)C(C)C (stereo partly drawn) [HN]
0.1 to 0.999 nM
CC[C@H]1C[C@@H](c2ncc(-c3ccc4c(c3)COc3cc5c(ccc6nc([C@@H]7CC[C@H](C)N7C(=O)[C@@H](NC(=O)OC)C(C)C)[nH]c65)cc3-4)[nH]2)N(C(=O)[C@@H](NC(=O)OC)[C@@H](C)OC)C1 [GX]
0.1 to 0.999 nM
